The following molecules are listed with their measured growth values.
test system: SF-295 CNS; assay: NCI-60 one-dose screen, 48 h (100 = growth as untreated, 0 = no growth, -100 = all killed); details: 10 µM unless noted
Compounds without any hit were thinned out: in the full panel of roughly 83,000, 20% have a hit.
Reply with just the number (in %).

O=c1c2ccccc2sc2c(N3CCCC3)nc3ccccc3c12
115
CCOC(=O)c1[nH]c(-c2ccc(Cl)cc2)cc1-c1cccnc1
10.9
COc1ccc(-c2ccc(NC(=O)Nc3cccc(C(F)(F)F)c3)c(C)n2)cc1
47.6
CCN(CC)CCN1C(=O)c2c(c3c4ccccc4[nH]c3c3[nH]c4ccccc4c23)C1=O
84.7
C[C@@H]1CC2C3C[C@H](F)C4=CC(=O)C=C[C@]4(C)[C@@]3(F)[C@@H](O)C[C@]2(C)[C@@]1(O)C(=O)CO (some centres not stated)
116

I am curious: what growth value has been reported for COCCNC(C(=O)c1ccccc1)c1ccccc1 (configuration not stated) ? 98

Follow-up entry: COc1cc(-c2nc3ccccc3s2)ccc1OCc1nc2n(n1)S(=O)(=O)c1ccccc1N2c1ccccc1 107

Where do these numbers come from? They come from PubChem BioAssay (NCI).
